Tested on: HIV-1 (JRCSF)
Experiment: Anti-HIV activity in MaRBLE cells infected with HIV-1 (JRCSF), luciferase readout
Format: cell-based
Conditions: Human immunodeficiency virus 1, 168 h; MaRBLE cells (human T lymphocyte-derived HPB-M(a)) infected with HIV-1 (JRCSF); 7 days culture; rate of viral proliferation by luciferase activity; read-out: Anti-HIV activity IC50
pIC50: −log10 of the molar value.
quantity.kind: pIC50

(P) Cc1ncnc2c1c(NCCc1ccccn1)cc(=O)n2O
(Q) O=c1cc(NC2Cc3ccccc3C2)c2cncnc2n1O
(R) Cc1ncnc2c1c(O)cc(=O)n2O
Qu. rank_up(items): orders items by reported pIC50 in ascending numerical order. Output the labels ranked as instructed.
Ans. R, Q, P

(P) Cc1ncnc2c1c(NCc1cccnc1)cc(=O)n2O
(Q) Cc1ncnc2c1c(NCc1ccccc1O)cc(=O)n2O
(R) O=c1cc(NCC2CCCCC2)c2cncnc2n1O
Qu. Sort ascending by pIC50. Output the labels ranked as instructed.
Ans. R, P, Q

====

System: HIV-1 (JRCSF)
Test: Anti-HIV activity in MaRBLE cells infected with HIV-1 (JRCSF), luciferase readout
Assay type: cell-based
Details: Human immunodeficiency virus 1, 168 h; MaRBLE cells (human T lymphocyte-derived HPB-M(a)) infected with HIV-1 (JRCSF); 7 days culture; rate of viral proliferation by luciferase activity; read-out: Anti-HIV activity IC50
quantity.kind: IC50 (nM)

Completed entries (count: 3):
INSERT INTO results (chem_smiles, quantitative_result) VALUES
  ('O=C(NCc1ccccc1)c1c(O)c2cncnc2n(O)c1=O', 64),
  ('Cc1ncnc2c1c(NCc1ccc(N(C)C)cc1)cc(=O)n2O', 76),
  ('Cc1ncnc2c1c(NCc1ccco1)cc(=O)n2O', 130);

(P) O=c1cc(NCc2ccc(-c3ccccc3)cc2)c2cncnc2n1O
(Q) Cc1ncnc2c1c(NCc1cccc(N)c1)cc(=O)n2O
(R) Cc1ncnc2c1c(NCCc1cccnc1)cc(=O)n2O
Qu. Put the items in sequence by IC50, from largest down. Output the labels ranked as instructed.
Ans. R, P, Q

====

System: HIV-1 (JRCSF)
Experiment: Anti-HIV activity in MaRBLE cells infected with HIV-1 (JRCSF), luciferase readout
Assay type: cell-based
Conditions: Human immunodeficiency virus 1, 168 h; MaRBLE cells (human T lymphocyte-derived HPB-M(a)) infected with HIV-1 (JRCSF); 7 days culture; rate of viral proliferation by luciferase activity; read-out: Anti-HIV activity IC50
quantity.kind: IC50 (µM)

INSERT INTO measurements (compound, quantity_kind, quantitative_result) VALUES
  ('Cc1ncnc2c1c(NCc1cncc3ccccc13)cc(=O)n2O', 'IC50', 0.046),
  ('O=C(NCc1ccccc1)c1cc2c(NCc3ccccc3)ncnc2n(O)c1=O', 'IC50', 0.79),
  ('Cc1ncnc2c1c(NCc1ccccc1N)cc(=O)n2O', 'IC50', 0.078);

(a) Cc1ccc(CNc2cc(=O)n(O)c3ncnc(C)c23)cc1
(b) Cc1ncnc2c1c(Nc1ccccc1)cc(=O)n2O
Qu. Looking only at measured IC50, which entry is lower, a or b ? Bench note: the answer is the label of the chosen record.
Ans. a

(I) Cc1ncnc2c1c(NCc1cncc(F)c1)cc(=O)n2O
(II) Cc1ncnc2c1c(NCc1ccccc1)cc(=O)n2O
Qu. Looking only at measured IC50, which entry is lower, I or II ? Bench note: the answer is the label of the chosen record.
Ans. II

====

Tested on: HIV-1 (JRCSF)
Test: Anti-HIV activity in MaRBLE cells infected with HIV-1 (JRCSF), luciferase readout
Assay type: cell-based
Conditions: Human immunodeficiency virus 1, 168 h; MaRBLE cells (human T lymphocyte-derived HPB-M(a)) infected with HIV-1 (JRCSF); 7 days culture; rate of viral proliferation by luciferase activity; read-out: Anti-HIV activity IC50
pIC50: −log10 of the molar value.
quantity.kind: pIC50

INSERT INTO measurements (chem_smiles, quantitative_result) VALUES
  ('Cc1cncc(CNc2cc(=O)n(O)c3ncnc(C)c23)c1', 6.92),
  ('O=c1cc(NCc2ccccc2)c2cncnc2n1O', 6.92),
  ('Cc1ncnc2c1c(NCC1CCCCC1)cc(=O)n2O', 7.17),
  ('Cc1cccc(CNc2cc(=O)n(O)c3ncnc(C)c23)c1', 7.09);

====

Test system: HIV-1 (JRCSF)
Experiment: Anti-HIV activity in MaRBLE cells infected with HIV-1 (JRCSF), luciferase readout
Type: cell-based
Details: Human immunodeficiency virus 1, 168 h; MaRBLE cells (human T lymphocyte-derived HPB-M(a)) infected with HIV-1 (JRCSF); 7 days culture; rate of viral proliferation by luciferase activity; read-out: Anti-HIV activity IC50
quantity.kind: IC50 (nM)

INSERT INTO results (compound, quantity_kind, quantitative_result) VALUES
  ('Cc1ncnc2c1c(O)c(C(=O)NCc1ccccc1)c(=O)n2O [Example 111]', 'IC50', 8.4);

(I) Cc1ncnc2c1c(NCc1cccnc1N1CCOCC1)cc(=O)n2O [Example 57]
(II) Cc1ncnc2c1c(NCc1ccc3c(c1)OCCO3)cc(=O)n2O [Example 52]
Qu. Looking only at measured IC50, which entry is lower, I or II ? Bench note: the answer is the label of the chosen record.
Ans. II

====

Test system: HIV-1 (JRCSF)
Test: Anti-HIV activity in MaRBLE cells infected with HIV-1 (JRCSF), luciferase readout
Format: cell-based
Settings: Human immunodeficiency virus 1, 168 h; MaRBLE cells (human T lymphocyte-derived HPB-M(a)) infected with HIV-1 (JRCSF); 7 days culture; rate of viral proliferation by luciferase activity; read-out: Anti-HIV activity IC50
quantity.kind: IC50 (µM)

INSERT INTO assay_data (compound, quantity_kind, unit_label, quantitative_result) VALUES
  ('Cc1ncnc2c1c(NCc1cccc(F)c1)cc(=O)n2O [Example 151]', 'IC50', 'µM', 0.054),
  ('Cc1ncnc2c1c(NCc1cc3ccccc3[nH]1)cc(=O)n2O [Example 95]', 'IC50', 'µM', 0.11),
  ('O=c1cc(NCc2ccc(O)cc2)c2cncnc2n1O [Example 103]', 'IC50', 'µM', 0.2),
  ('Cc1ncnc2c1c(NCc1ccc(OCC(F)(F)F)nc1)cc(=O)n2O [Example 58]', 'IC50', 'µM', 0.094),
  ('Cc1ncnc2c1c(NCc1ccccc1C(F)(F)F)cc(=O)n2O [Example 149]', 'IC50', 'µM', 0.026),
  ('Cc1ncnc2c1c(NCc1ccc(C(C)C)cc1)cc(=O)n2O [Example 152]', 'IC50', 'µM', 0.095),
  ('Cc1ncnc2c1c(NCc1cnccc1C(F)(F)F)cc(=O)n2O [Example 133]', 'IC50', 'µM', 0.059),
  ('Cc1ncnc2c1c(NCc1ccccc1OC(F)(F)F)cc(=O)n2O [Example 160]', 'IC50', 'µM', 0.068),
  ('Cc1ncnc2c1c(NCc1ccccc1-c1cccnc1)cc(=O)n2O [Example 72]', 'IC50', 'µM', 0.15),
  ('Cc1ncnc2c1c(NCCCc1cccnc1)cc(=O)n2O [Example 161]', 'IC50', 'µM', 0.18);

(P) Cc1ncccc1CNc1cc(=O)n(O)c2ncnc(C)c12 [Example 48]
(Q) O=c1cc(NCc2ccccc2)c2c(O)ncnc2n1O [Example 115]
(R) Cc1ncnc2c1c(NCCc1ccncc1)cc(=O)n2O [Example 86]
Qu. Put the items in sequence by IC50, from largest down. Output the labels ranked as instructed.
Ans. R, Q, P

====

Tested on: HIV-1 (JRCSF)
Assay: Anti-HIV activity in MaRBLE cells infected with HIV-1 (JRCSF), luciferase readout
Assay type: cell-based
Conditions: Human immunodeficiency virus 1, 168 h; MaRBLE cells (human T lymphocyte-derived HPB-M(a)) infected with HIV-1 (JRCSF); 7 days culture; rate of viral proliferation by luciferase activity; read-out: Anti-HIV activity IC50
quantity.kind: IC50 (nM)

INSERT INTO results (molecule, study_system, quantity_kind, quantitative_result) VALUES
  ('O=c1cc(NCc2ccc3ccccc3c2)c2cncnc2n1O', 'HIV-1 (JRCSF)', 'IC50', 190),
  ('Cc1ncnc2c1c(NC(C)c1ccccn1)cc(=O)n2O (centres unmarked)', 'HIV-1 (JRCSF)', 'IC50', 160),
  ('Cc1ncnc2c1c(NCc1ccccn1)cc(=O)n2O', 'HIV-1 (JRCSF)', 'IC50', 100);

(A) Cc1ncnc2c1c(NCc1cccc3[nH]ccc13)cc(=O)n2O
(B) Cc1ncnc2c1c(NCc1cccc(N(C)C)c1)cc(=O)n2O
Qu. Looking only at measured IC50, which entry is lower, A or B ? Bench note: the answer is the label of the chosen record.
Ans. B
